B1: RIPK4 (parent)
chain: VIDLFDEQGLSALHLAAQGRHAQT

- Variants of: B1
- assay_method_text: protein stability index of a GFP-peptide fusion (GPS, HEK-293T) (PSI 1-6); higher = more stable;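 further: lentivirally expressed fusions sorted by FACS into six bins by GFP to DsRed ratio, PSI derived from sequencing read proportions per bin multiplied by bin number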
- experimental_setup: c terminus: a fixed tail appended
metric: protein stability index
Could you keep your reply to the number by itself?

// recorded protein stability index for Q18W : 2.88

// recorded protein stability index for T24E : 4

// recorded protein stability index for Q23K : 3.17

// recorded protein stability index for H21V : 2.72

// recorded protein stability index for A12C : 2.36

// recorded protein stability index for L15Y : 2.32

// recorded protein stability index for S11K : 2.65

// recorded protein stability index for D3M : 1.36

// recorded protein stability index for A22L : 2.1
